Could you please report measured DC50 for the items listed next?
- experimental_target: EGFR L858R/T790M/C797S (BaF3-LTC cells) (Homo sapiens, UniProt P00533, C797S/L858R/T790M)
- Construct: expressed in transfected cells; host or cells: BaF3
- Sequence (P00533 25-1210 T790M/C797S/L858R): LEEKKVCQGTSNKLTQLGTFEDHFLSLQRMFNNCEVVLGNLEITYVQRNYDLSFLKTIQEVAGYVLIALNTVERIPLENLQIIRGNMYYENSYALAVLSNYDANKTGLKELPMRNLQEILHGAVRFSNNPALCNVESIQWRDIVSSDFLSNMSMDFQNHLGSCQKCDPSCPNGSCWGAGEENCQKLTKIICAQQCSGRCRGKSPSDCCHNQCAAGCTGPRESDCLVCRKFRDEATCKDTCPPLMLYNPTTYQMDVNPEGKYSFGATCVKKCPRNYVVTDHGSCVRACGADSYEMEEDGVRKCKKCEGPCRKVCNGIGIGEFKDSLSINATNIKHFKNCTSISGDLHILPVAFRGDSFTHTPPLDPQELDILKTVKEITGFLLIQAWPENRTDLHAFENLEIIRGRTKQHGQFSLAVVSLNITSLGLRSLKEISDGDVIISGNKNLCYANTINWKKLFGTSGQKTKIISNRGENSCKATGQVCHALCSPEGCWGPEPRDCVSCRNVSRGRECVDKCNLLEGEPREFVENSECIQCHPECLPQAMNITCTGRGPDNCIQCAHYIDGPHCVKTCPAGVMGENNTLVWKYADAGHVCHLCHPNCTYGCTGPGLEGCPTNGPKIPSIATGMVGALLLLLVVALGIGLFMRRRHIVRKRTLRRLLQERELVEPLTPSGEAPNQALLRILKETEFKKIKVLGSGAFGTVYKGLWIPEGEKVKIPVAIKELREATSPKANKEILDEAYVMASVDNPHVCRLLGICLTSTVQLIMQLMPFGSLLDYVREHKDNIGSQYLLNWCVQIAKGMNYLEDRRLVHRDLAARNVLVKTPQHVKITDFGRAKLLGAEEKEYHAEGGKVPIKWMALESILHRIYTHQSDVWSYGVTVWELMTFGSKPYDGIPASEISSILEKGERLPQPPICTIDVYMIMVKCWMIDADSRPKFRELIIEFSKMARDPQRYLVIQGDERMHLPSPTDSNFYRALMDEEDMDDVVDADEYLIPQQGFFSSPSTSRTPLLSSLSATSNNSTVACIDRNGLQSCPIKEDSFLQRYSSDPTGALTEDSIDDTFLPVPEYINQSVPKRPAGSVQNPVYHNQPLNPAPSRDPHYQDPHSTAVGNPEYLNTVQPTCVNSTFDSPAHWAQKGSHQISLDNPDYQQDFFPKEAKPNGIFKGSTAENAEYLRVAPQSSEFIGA
- method: EGFR degradation HTRF assay, BaF3-LTC cells
- Format: cell-based
- assay_conditions: BaF3-LTC cells; EGFR degradation, IC50 (DC50) from curve fit; read-out: DC50(nM) BaF3-LTC
Give bare numbers, in nM.

Look over these answered cases.
| compound | DC50 [nM] |
| --- | --- |
| CCc1ccc2c(P(C)(C)=O)c(Nc3nc(Nc4cc(CC)c(N5CCC(N6CCN(CCc7cc(F)c(C8CCC(=O)NC8=O)c(F)c7)CC6)CC5)cc4OC)ncc3Br)ccc2n1 (stereo not shown) | 26.9 |
| CCc1ncc2c(P(C)(C)=O)c(Nc3nc(Nc4cc(C)c(N5CCC(N6CCN(CCc7cc(F)c([C@H]8CCC(=O)NC8=O)c(F)c7)CC6)CC5)cc4OC)ncc3Br)ccc2n1 | 5.75 |
| CCOc1cc(N2CCC(N3CCN(CCc4cc5oc(=O)n(C6CCC(=O)NC6=O)c5cc4C)CC3)CC2)c(CC)cc1Nc1ncc(Br)c(Nc2cc(F)c3nc(CC)ccc3c2P(C)(C)=O)n1 (stereo not shown) | 2.49 |

The record that follows has no DC50 shown yet.
Sample CCc1cc(Nc2ncc(Br)c(Nc3ccc4nc(C)ccc4c3P(C)(C)=O)n2)c(OC)cc1N1CCC(N2CCN(C(=O)[C@@H]3CN(c4cc(F)c([C@H]5CCC(=O)NC5=O)c(F)c4)CC3(C)C)CC2)CC1 — what was its DC50?
5.4

* * *

Could you please report measured Dmax (%) H1975 # 28 DTC for the items listed next?
- System: EGFR Del19/T790M/C797S (H1975-clone #28)
- method: EGFR degradation HTRF assay, H1975-clone #28 DTC cells
- Type: cell-based
- assay_conditions: H1975 # 28 DTC cells; maximum percentage of inhibition (degradation)
One number for each entry, in %.

Look over these answered cases.
| compound | experimental_target | unit_spec | Dmax (%) H1975 # 28 DTC |
| --- | --- | --- | --- |
| CCc1cc(Nc2ncc(Br)c(Nc3ccc4ccnnc4c3P(C)(C)=O)n2)c(OC)cc1N1CCC(N2CCN(C(=O)[C@@H]3CCN(c4cc(F)c([C@H]5CCC(=O)NC5=O)c(F)c4)C3)CC2)CC1 | EGFR Del19/T790M/C797S (H1975-clone #28) | % | 83.91 |
| CCOc1cc(N2CCC(N3CCN(CC4CN(c5cc(F)c([C@H]6CCC(=O)NC6=O)c(F)c5)C4)CC3)CC2)c(CC)cc1Nc1ncc(Br)c(Nc2ccc3nc(CC)ncc3c2P(C)(C)=O)n1 | EGFR Del19/T790M/C797S (H1975-clone #28) | % | 87.82 |
| CCc1ncc2c(P(C)(C)=O)c(Nc3nc(Nc4cc(CC)c(N5CCC(N6CCN(CCc7ccc8c(c7)oc(=O)n8C7CCC(=O)NC7=O)CC6)CC5)cc4OC)ncc3Br)ccc2n1 (stereo not shown) | EGFR Del19/T790M/C797S (H1975-clone #28) | % | 77.41 |

The record that follows has no Dmax (%) H1975 # 28 DTC shown yet.
Sample CCOc1cc(N2CCC(N3CCN(C(=O)[C@H]4CN(c5cc(F)c([C@H]6CCC(=O)NC6=O)c(F)c5)CC4(C)C)CC3)CC2)c(CC)cc1Nc1ncc(Br)c(Nc2ccc3nc(C)ccc3c2P(C)(C)=O)n1 — what was its Dmax (%) H1975 # 28 DTC?
76.51
